- Tested system: delta opioid receptor (NG108-15 cell membranes) (Mus musculus)
- Construct: NG108-15 cell membranes were purchased from Applied Cell Sciences (Rockville, Md.); host or cells: NG108-15 cells (membranes purchased)
- Assay info: Delta Opioid Receptor Functional Assay: [35S]GTPγS Binding in NG108-15 Cell Membranes, Version 2
- Type: biochemical
- Protocol conditions: NG108-15 cell membranes, [35S]GTPγS, version 2; read-out: DOR GTP-binding Assay_v2_ EC50
The entries below come with measured EC50 values attached.
Only the number, expressed in nM, is required.

Answered examples (5):
chemical_string=COc1ccc(CN(C(=O)[C@@H](N)Cc2c(C)cc(C(N)=O)cc2C)[C@@H](C)c2nc(-c3ccccc3)c[nH]2)cc1C(N)=O numeric_readout=2.2
chemical_string=Cc1cc(C(N)=O)cc(C)c1C[C@H](N)C(=O)N(Cc1ccccc1C(N)=O)[C@@H](C)c1nc(-c2ccccc2)c[nH]1 numeric_readout=88
chemical_string=Cc1cc(O)cc(C)c1C[C@H](N)C(=O)N(Cc1ccc(C(F)(F)F)cc1)[C@@H](C)c1nc(-c2ccccc2)c[nH]1 numeric_readout=8
chemical_string=COc1ccc(CN(C(=O)[C@@H](N)Cc2ccc(C(N)=O)cc2)[C@@H](C)c2nc(-c3ccccc3)c[nH]2)cc1C(=O)O numeric_readout=46
chemical_string=COc1ccc(CN(C(=O)[C@@H](N)Cc2ccc(O)cc2)[C@@H](C)c2nc(-c3ccccc3)c[nH]2)cc1C(=O)O numeric_readout=21

Form: molecule = "COc1cc(CN(C(=O)[C@@H](N)Cc2c(C)cc(C(N)=O)cc2C)[C@@H](C)c2nc(-c3ccccc3)c[nH]2)c(C(=O)O)cc1OC" ; EC50 = 48.9

Form: molecule = "Cc1cc(O)cc(C)c1C[C@H](N)C(=O)N(Cc1ccc(OC(F)(F)F)cc1)[C@@H](C)c1nc(-c2ccccc2)c[nH]1" ; EC50 = 15

Form: molecule = "Cc1cc(C(N)=O)cc(C)c1C[C@H](N)C(=O)N(Cc1ccc(C(=O)O)cn1)[C@@H](C)c1nc(-c2ccccc2)c[nH]1" ; EC50 = 1.35

Form: molecule = "COc1cc(CN(C(=O)[C@@H](N)Cc2c(C)cc(C(N)=O)cc2C)[C@@H](C)c2nc(-c3ccccc3)c[nH]2)ccc1C(=O)O" ; EC50 = 0.6

Form: molecule = "CCOc1cccc(CN(C(=O)[C@@H](N)Cc2c(C)cc(O)cc2C)[C@@H](C)c2nc(-c3ccccc3)c[nH]2)c1" ; EC50 = 18

###

- Tested system: human delta subtype 2 opioid receptor (Homo sapiens, UniProt P41143)
- Sequence (P41143 whole entry): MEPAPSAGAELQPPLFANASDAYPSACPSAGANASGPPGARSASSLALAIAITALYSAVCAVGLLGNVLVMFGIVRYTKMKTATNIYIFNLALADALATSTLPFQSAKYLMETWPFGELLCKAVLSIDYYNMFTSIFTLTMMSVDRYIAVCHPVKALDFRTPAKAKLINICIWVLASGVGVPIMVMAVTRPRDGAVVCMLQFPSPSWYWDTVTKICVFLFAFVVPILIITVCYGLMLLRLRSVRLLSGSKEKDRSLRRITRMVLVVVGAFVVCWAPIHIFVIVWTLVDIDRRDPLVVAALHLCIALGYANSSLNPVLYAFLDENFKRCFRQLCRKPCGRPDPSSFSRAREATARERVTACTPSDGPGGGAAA
- Assay info: Human Delta Opioid Receptor Binding Assay (CHO membranes, 3H-Naltrindole)
- Protocol conditions: read-out: hKi δ
Measured endpoint: log10 of Ki (log10 of the value in nM)
Heads up, the numbers here are log10 of Ki in nM units.

Answered examples (5):
compound="Cc1cc(O)cc(C)c1C[C@H](N)C(=O)N(Cc1ccc(Cl)c(Cl)c1)Cc1nc(-c2ccccc2)c[nH]1 [Cpd 87]" numeric_readout=1.59
compound="Cc1cc(O)cc(C)c1C[C@H](N)C(=O)N(C(C)C)[C@H](C)c1nc(-c2ccc(F)cc2)c[nH]1 [Cpd 82]" numeric_readout=1.66
compound="Cc1cc(O)cc(C)c1C[C@H](N)C(=O)N(Cc1nc(-c2cccc(S(C)(=O)=O)c2)c(C)[nH]1)C(C)C [Cpd 72]" numeric_readout=1.85
compound="Cc1cc(O)cc(C)c1C[C@H](N)C(=O)N(Cc1nc(-c2ccsc2)c(C)[nH]1)C(C)C [Cpd 146]" numeric_readout=1.85
compound="Cc1cc(O)cc(C)c1C[C@H](N)C(=O)N(C(C)C)[C@@H](CC(C)C)c1nc(-c2ccccc2)c[nH]1 [Cpd 140]" numeric_readout=2.99

Consider the record given below.
Form: compound = Cc1cc(O)cc(C)c1C[C@H](N)C(=O)N(Cc1nc(-c2ccccc2)c[nH]1)C1CCCCC1 [Cpd 190] ; log10 of Ki = 2.45

###

The entries below come with measured DOR GTP-binding Assay v2 (% I) values attached.
- Tested system: delta opioid receptor (NG108-15 cell membranes) (Mus musculus, UniProt P32300)
- Construct: NG108-15 cell membranes were purchased from Applied Cell Sciences (Rockville, Md.); host or cells: NG108-15 cells (membranes purchased)
- Sequence (P32300 whole entry): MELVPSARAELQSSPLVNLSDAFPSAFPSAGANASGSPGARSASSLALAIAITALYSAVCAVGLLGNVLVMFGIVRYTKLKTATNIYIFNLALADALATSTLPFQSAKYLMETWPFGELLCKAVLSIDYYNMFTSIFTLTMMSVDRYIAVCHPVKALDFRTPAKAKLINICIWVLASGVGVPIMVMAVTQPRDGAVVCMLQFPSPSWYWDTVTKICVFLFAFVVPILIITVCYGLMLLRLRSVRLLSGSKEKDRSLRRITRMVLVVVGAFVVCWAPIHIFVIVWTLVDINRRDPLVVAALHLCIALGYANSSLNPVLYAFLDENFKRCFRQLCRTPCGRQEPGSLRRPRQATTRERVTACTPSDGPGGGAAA
- Assay info: Delta Opioid Receptor Functional Assay: [35S]GTPγS Binding in NG108-15 Cell Membranes, Version 2
- Type: biochemical
- Protocol conditions: NG108-15 cell membranes, version 2; % inhibition of agonist-stimulated GTPγS binding
Only the number, expressed in %, is required.

Answered examples (5):
chemical_string=COc1ccc(CN(C(=O)[C@@H](N)Cc2c(C)cc(C(N)=O)cc2C)[C@@H](C)c2nc(-c3ccccc3)c[nH]2)cc1C(=O)N1CCOCC1 tested_system="delta opioid receptor (NG108-15 cell membranes) (Mus musculus, UniProt P32300)" measured_endpoint="DOR GTP-binding Assay v2 (% I)" numeric_readout=69.41
chemical_string=COc1ccc(CN(C(=O)[C@@H](N)Cc2c(C)cc(C(N)=O)cc2C)[C@@H](C)c2nc(-c3cccc(C(=O)O)c3)c[nH]2)cc1OC tested_system="delta opioid receptor (NG108-15 cell membranes) (Mus musculus, UniProt P32300)" measured_endpoint="DOR GTP-binding Assay v2 (% I)" numeric_readout=78.74
chemical_string=COC(=O)c1cccc(CN(C(=O)[C@@H](N)Cc2c(C)cc(C(N)=O)cc2C)[C@@H](C)c2nc(-c3ccccc3)c[nH]2)c1 tested_system="delta opioid receptor (NG108-15 cell membranes) (Mus musculus, UniProt P32300)" measured_endpoint="DOR GTP-binding Assay v2 (% I)" numeric_readout=67.13
chemical_string=C[C@@H](c1nc(-c2ccccc2)c[nH]1)N(Cc1cccc(-c2nnn[nH]2)c1)C(=O)[C@@H](N)Cc1ccc(C(N)=O)cc1 tested_system="delta opioid receptor (NG108-15 cell membranes) (Mus musculus, UniProt P32300)" measured_endpoint="DOR GTP-binding Assay v2 (% I)" numeric_readout=31.76
chemical_string=COc1ccc(CN(C(=O)[C@@H](N)Cc2c(C)cc(C(N)=O)cc2C)[C@@H](C)c2nc(-c3ccccc3)c[nH]2)cc1C(N)=O tested_system="delta opioid receptor (NG108-15 cell membranes) (Mus musculus, UniProt P32300)" measured_endpoint="DOR GTP-binding Assay v2 (% I)" numeric_readout=71.66

Consider the record given below.
Form: compound = "Cc1cc(O)cc(C)c1C[C@H](N)C(=O)N(Cc1cccc(C(=O)O)c1)[C@@H](C)c1nc(-c2ccccc2)c[nH]1" ; DOR GTP-binding Assay v2 (% I) = 108.36

###

The entries below come with measured Ki values attached.
- Tested system: mu opioid receptor (Rattus norvegicus, UniProt P33535)
- Construct: from tissue; host or cells: forebrain of male Wistar rats
- Sequence (P33535 whole entry): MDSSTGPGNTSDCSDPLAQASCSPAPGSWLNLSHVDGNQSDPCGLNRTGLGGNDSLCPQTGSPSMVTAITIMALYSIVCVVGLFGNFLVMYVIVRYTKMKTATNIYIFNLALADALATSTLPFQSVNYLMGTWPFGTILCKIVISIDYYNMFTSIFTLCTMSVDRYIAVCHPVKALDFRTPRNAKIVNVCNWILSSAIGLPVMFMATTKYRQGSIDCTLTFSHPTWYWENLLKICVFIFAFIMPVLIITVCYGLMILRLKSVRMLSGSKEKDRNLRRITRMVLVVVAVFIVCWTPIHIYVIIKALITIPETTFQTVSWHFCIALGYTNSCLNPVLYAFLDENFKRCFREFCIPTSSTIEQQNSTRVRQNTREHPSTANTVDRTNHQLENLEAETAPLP
- Assay info: Rat Brain Mu Opioid Receptor Binding Assay (and Version 2a, [3H]DAMGO)
- Protocol conditions: rat forebrain membranes, margin of error 10-20%, read-out: r Ki μ
Only the number, expressed in nM, is required.

chemical_string=Cc1cc(O)cc(C)c1C[C@H](N)C(=O)N(C)Cc1nc(-c2ccccc2)c[nH]1 numeric_readout=0.3
chemical_string=Cc1cc(O)cc(C)c1C[C@H](N)C(=O)N(Cc1ccc(C(=O)O)o1)[C@@H](C)c1nc(-c2ccccc2)c[nH]1 numeric_readout=0.13
chemical_string=COc1ccc(CN(C(=O)[C@@H](N)Cc2ccc(O)cc2)[C@@H](C)c2nc(-c3ccccc3)c[nH]2)cc1C(N)=O numeric_readout=0.11

Form: molecule = "COc1ccc(CN(C(=O)[C@@H](N)Cc2c(C)cc(O)cc2C)[C@@H](C)c2nc(-c3ccccc3)c[nH]2)cc1C(=O)Nc1ccccc1" ; Ki = 0.2

Form: molecule = "CCN(C(=O)[C@@H](N)Cc1ccc(O)cc1)[C@H](C)c1nc(-c2ccccc2)c[nH]1" ; Ki = 44

Form: molecule = "CCN(C(=O)[C@@H](N)Cc1c(C)cc(O)cc1C)[C@@H](C)c1nc(-c2ccccc2)c[nH]1" ; Ki = 0.04

Form: molecule = "CCNC(=O)c1cc(C)c(C[C@H](N)C(=O)N(C)[C@@H](C)c2nc(-c3ccccc3)c[nH]2)c(C)c1" ; Ki = 1.3

Form: molecule = "COc1ccc(CN(C(=O)[C@@H](N)Cc2ccc(O)cc2)[C@@H](C)c2nc(-c3ccccc3)c[nH]2)cc1C(=O)N1CCOCC1" ; Ki = 0.3

Form: molecule = "Cc1cc(O)cc(C)c1C[C@H](N)C(=O)N[C@@H](C)c1nc(-c2ccccc2)c[nH]1" ; Ki = 17

Form: molecule = "Cc1cc(O)cc(C)c1C[C@H](N)C(=O)N[C@H](C)c1nc(-c2ccccc2)c[nH]1" ; Ki = 1.3

Form: molecule = "COC(=O)c1ccc(CN(C(=O)[C@@H](N)Cc2ccc(C(N)=O)cc2)[C@@H](C)c2nc(-c3ccccc3)c[nH]2)o1" ; Ki = 3.87

Form: molecule = "COc1ccc(CN(C(=O)[C@@H](N)Cc2c(C)cc(C(N)=O)cc2C)[C@@H](C)c2nc(-c3ccc(I)cc3)c[nH]2)cc1C(=O)O" ; Ki = 0.25
